Numbers sourced from ChEMBL document CHEMBL1130569.

tested on: Nucleic Acid; assay: Compound was evaluated for relative rate constant for alkylation of the single high affinity site in w794 DNA at pH 7.5.; type: nucleic-acid assay
recorded.metric: Krel

| structure.as.smiles | recorded.metric | result.value |
| --- | --- | --- |
| COc1ccc2c(c1)[C@@]13C[C@@H]1CN(C(=O)c1cc4cc(OC)c(OC)c(OC)c4[nH]1)C3=CC2=O | Krel | 1.9 |
| COC(=O)c1cc2c([nH]1)C(=O)C=C1N(C(=O)c3cc4cc(OC)c(OC)c(OC)c4[nH]3)C[C@H]3C[C@]123 | Krel | 0.9 |
| N#Cc1ccc2c(c1)[C@@]13C[C@@H]1CN(C(=O)c1cc4cc(NC(=O)c5cc6ccccc6[nH]5)ccc4[nH]1)C3=CC2=O | Krel | 2.5 |
| COc1cc2cc(C(=O)N3C[C@H]4C[C@@]45C3=CC(=O)c3ccccc35)[nH]c2c(OC)c1OC | Krel | 1 |
